- Tested on: CAKI-1
- test-name: NCI tumour cell line growth inhibition, 48 h
The source made the active and inactive calls. No stated cut-off is given here; in the data, active = GI50 up to about 1.1 µM and inactive = higher.
measured-metric: GI50

Examples with their reported GI50 follow.
1) CC(C)(c1ccc(OC#N)cc1)c1ccc(OC#N)cc1
> 100 µM (inactive)
2) CC1(C)OC(=O)C(C#N)=C1C[n+]1ccccc1
> 10 µM (inactive)
3) N#CC[N+]1(Cc2ccccn2)CCCC1.O=S(=O)([O-])c1ccccc1
> 100 µM (inactive)
4) NNC(=O)/C(NC(=O)c1ccccc1)=C(\N)c1ccc(Cl)cc1
> 100 µM (inactive)
5) O=C(O)c1ccc(NC(NC(=O)C(C(F)(F)F)C(F)(F)F)(C(F)(F)F)C(F)(F)F)cc1
> 100 µM (inactive)
6) COC1/C=C/C(C)C(C(C)C(OC)C(C)CCC(=O)C(C)C(CC(=O)O)OC)OC(=O)/C=C/C=C(\C)CC(OC)C(OC)C2=CC(=O)O[C@@H](C(C)C(OC)CC(OC)/C=C/C(C)C(O)C1)[C@H]2O (stereo partly specified)
0.033 µM (active)
7) N#CC(C#N)=Cc1ccc2c(c1)OC(Cl)O2 (stereo unspecified)
> 100 µM (inactive)
8) CN(CC(=O)O)Cc1c[nH]c2ccccc12
> 100 µM (inactive)
9) O=C(O)c1ccc(OCc2nc3cc(C(F)(F)F)ccc3nc2-c2ccccc2)cc1
5.52 µM (inactive)
10) CSc1nnc(SC)nn1
16.9 µM (inactive)

For each entry beneath this line, provide reported GI50.
1. COC(=O)CCC1(O)C=CC(=O)C=C1
2. COc1ccc(-c2cc(-c3ccccc3)n(C3OCC(OC(C)=O)C(OC(C)=O)C3OC(C)=O)c(=S)c2C#N)cc1 (stereo unspecified)

OUTPUT:
["16.6 µM (inactive)", "67.5 µM (inactive)"]

For each entry beneath this line, provide reported GI50.
1. CCOC(=O)c1nc2ccc([N+](=O)[O-])cc2c2c1CCO2
2. Cc1ccc(-c2cc(=S)n(-c3ccccc3)c3[nH]c(=S)n(-c4ccccc4)c(=N)c23)cc1
3. O=C(c1ccccc1)C1CCCCN1C(=O)c1ccccc1 (stereo unspecified)
4. Cc1cc(=O)[nH]c(-n2[nH]c3c(c2=O)CCCC3)n1
5. C/C(=C/CNc1ncnc2c1ncn2CCC#N)CO

OUTPUT:
1. > 100 µM (inactive)
2. > 100 µM (inactive)
3. > 100 µM (inactive)
4. 70.1 µM (inactive)
5. > 100 µM (inactive)

For each entry beneath this line, provide reported GI50.
1. O=C(Nc1ccc([N+](=O)[O-])cc1)Nn1cnnc1
2. C=CCOc1cccc(C2(O)c3ccccc3C3=NCCCN32)c1 (stereo unspecified)
3. C[C@]12CC[C@H](O)C[C@@H]1CC[C@@H]1[C@@H]2CC[C@]2(C)[C@@H](C3=CC(=O)OC3)CC[C@]12O
4. NC1CNC(=O)c2cscc21 (stereo unspecified)

OUTPUT:
["> 100 µM (inactive)", "34.7 µM (inactive)", "1.81 µM (inactive)", "> 100 µM (inactive)"]

Entry source: ChEMBL document CHEMBL1201862
